AmyQ secretion efficiency overview
Test system: Bacillus subtilis DB104 (SP-AmyQ fusion secretion)
protocol.notes: AmyQ secretion efficiency, weighted average sort bin (1 = best secretion, 10 = worst) (bin number (weighted average, 1-10)); higher = lower secretion efficiency

| primary.sequence | AmyQ secretion efficiency |
| --- | --- |
| MFKFKKNFLVGLSAALMSISLFSATASAADD | 3.08 |
| MKQFAITLSVLCALILLVPTLLVIPFQHNKEAKASV | 5.85 |
| MKKRLILLSAASLAFFAMSGSAQAAAY | 2.92 |

----------
In this section, each of the sequences is paired with its reported AmyQ secretion efficiency.
System: Bacillus subtilis DB104 (SP-AmyQ fusion secretion)
protocol.notes: AmyQ secretion efficiency, weighted average sort bin (1 = best secretion, 10 = worst) (bin number (weighted average, 1-10)); higher = lower secretion efficiency

| primary.sequence | assayed.target | AmyQ secretion efficiency |
| --- | --- | --- |
| MKVLLSALLLLLFAFEPSASDKKL | Bacillus subtilis DB104 (SP-AmyQ fusion secretion) | 6.18 |
| MKKKLAAGLTASAIVGTTLVVTPAEYATI | Bacillus subtilis DB104 (SP-AmyQ fusion secretion) | 6.06 |
| MKVLLSALLLLLFAFEPSKSGKKL | Bacillus subtilis DB104 (SP-AmyQ fusion secretion) | 6.03 |
| MKRIRIPMTLALGAALTIAPLSFASREEN | Bacillus subtilis DB104 (SP-AmyQ fusion secretion) | 6.16 |
